System: Capan-1 cells
test-description: Inhibitory activity for Capan-1 cell proliferation (CCK-8)
Type: cell-based
test-parameters: Homo sapiens, CAPAN-1, 120 h, 5 days incubation
readout-label: IC50

# molecule, IC50
records = [
    ("C#Cc1c(F)ccc2cc(O)cc(-c3nc4c5c(nc(OCCCN6CCNCC6)nc5c3F)N(C(C)c3cccnc3N)[C@@H](C)CO4)c12 (single isomer, unassigned)", "< 0.1 µM"),
    ("C#Cc1c(F)ccc2cc(O)cc(-c3nc4c5c(nc(OCCCN(C)C)nc5c3F)N(C(C)c3cccnc3N)[C@@H](C)CO4)c12 (single isomer, unassigned)", "< 0.1 µM"),
    ("CC(c1cccnc1N)N1c2nc(OC[C@@]34CCCN3C[C@H](F)C4)nc3c(F)c(-c4cccc5ccc(F)c(F)c45)nc(c23)OC[C@@H]1C (single isomer, unassigned)", "< 0.1 µM"),
    ("C#Cc1c(F)ccc2cc(O)cc(-c3nc4c5c(nc(OC[C@@]67CCCN6C[C@H](F)C7)nc5c3F)N(CC)CCO4)c12", "0.1 to 0.5 µM"),
]

Problem: Recorded IC50 for C#Cc1c(F)ccc2cc(O)cc(-c3nc4c5c(nc(OCC67CCCN6CC(F)C7)nc5c3F)N(C(C)c3cccnc3N)C(C)CO4)c12 (single isomer, unassigned) , please?
Result: < 0.1 µM

* * *

test-description: In vivo pharmacokinetics in mice
test-parameters: mouse, in vivo, po; ICR mice, IG, 10 mg/kg
Protocol: ICR mice weighing 20 g to 24 g were randomized into groups with 9 mice in each group after 3 to 5 days of acclimatization, and intragastric administration of the experimental compounds was performed at a dose of 10 mg/kg. […] Oral exposure of the compounds of the present disclosure was evaluated by in vivo pharmacokinetic experiments in mice.
readout-label: AUC(0-t) (ng·h/mL)
Give your result in ng·h/mL as a bare value.

# compound, value-unit, AUC(0-t)
measured = [
    ("Cc1c(F)cc2[nH]ncc2c1-c1nc2c3c(nc(OC[C@@]45CCCN4C[C@H](F)C5)nc3c1F)N(C(C)c1cccnc1N)[C@@H](C)CO2 (single isomer, unassigned)", "ng·h/mL", 197),
]

Problem: Recorded AUC(0-t) for C#Cc1c(F)ccc2cccc(-c3nc4c5c(nc(OC[C@@H]6CCCN6C)nc5c3F)N(C(C)c3cccnc3N)[C@@H](C)CO4)c12 (single isomer, unassigned) , please?
Result: 266

* * *

test-description: In vivo pharmacokinetics in mice
test-parameters: mouse, plasma, po; ICR mice, IG, 10 mg/kg; gavage parameters were fitted to 6 h
readout-label: AUC(0-t) at 6 h
// unit must come after the numeric part

Problem: Recorded AUC(0-t) at 6 h for CC(c1cccnc1N)N1c2nc(OC[C@@H]3CCCN3C)nc3c(F)c(-c4cc(N)cc(Cl)c4C(F)(F)F)nc(c23)OC[C@@H]1C (single isomer, unassigned) , please?
Result: 156 ng·h/mL

* * *

test-description: In vivo pharmacokinetics in mice
test-parameters: mouse, in vivo, po; ICR mice, IG, 10 mg/kg; read-out: MRT(0-t)
readout-label: MRT last

# compound, MRT last
rows = [
    ("Cc1c(F)cc2[nH]ncc2c1-c1nc2c3c(nc(OC[C@@]45CCCN4C[C@H](F)C5)nc3c1F)N(C(C)c1cccnc1N)[C@@H](C)CO2 (single isomer, unassigned)", "3.4 h"),
]

Problem: Recorded MRT last for C#Cc1c(F)ccc2cccc(-c3nc4c5c(nc(OC[C@@H]6CCCN6C)nc5c3F)N(C(C)c3cccnc3N)[C@@H](C)CO4)c12 (single isomer, unassigned) , please?
Result: 4.93 h

Recorded values, source patent EP4570805A1.
